Source listed as patent US5622962A.

Target: Type I 5α-Reductase from Human Scalp (Homo sapiens)
Construct: Scalp punch biopsies from graft recipient sites were obtained from human hair transplant procedures; from tissue; host or cells: human scalp punch biopsies (hair transplant graft recipient sites), homogenate, 100,000×g pellet
Sequence (P18405 1-259): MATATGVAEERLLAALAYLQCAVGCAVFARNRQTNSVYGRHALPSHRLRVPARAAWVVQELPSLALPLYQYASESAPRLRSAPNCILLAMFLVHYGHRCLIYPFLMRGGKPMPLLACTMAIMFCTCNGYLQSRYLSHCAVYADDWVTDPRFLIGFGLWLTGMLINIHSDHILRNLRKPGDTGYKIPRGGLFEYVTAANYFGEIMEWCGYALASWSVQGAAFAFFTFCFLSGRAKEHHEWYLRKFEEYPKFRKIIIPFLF
Test: Human Type I 5α-reductase assay (conversion of [3H]-testosterone to 5α-reduced metabolites)
Type: biochemical
Conditions: pH 7.5, 0.3 μM; 50 nM [3H]-testosterone, pH 7.5, 25°, 180 min; compared to control reaction mixtures; read-out: percent inhibition of Type I AR
Recorded metric: inhibition at 0.3 µM (%)
// return numeric value only (unit: %, not printed)

inhibition at 0.3 µM recorded for this compound, Cc1ccc2ccccc2c1-c1ccc2c(c1)CC[C@H]1N(C)C(=O)CC[C@]21C , is 16

inhibition at 0.3 µM recorded for this compound, CN1C(=O)CC[C@]2(C)c3ccc(Sc4nc5c(-c6ccccc6)cccc5s4)cc3CC[C@@H]12 , is 73

inhibition at 0.3 µM recorded for this compound, CN1C(=O)CC[C@]2(C)c3ccc(-c4ccc(Cl)s4)cc3CC[C@@H]12 , is 84

inhibition at 0.3 µM recorded for this compound, CCCc1cccc2sc(Sc3ccc4c(c3)CC[C@H]3N(C)C(=O)CC[C@]43C)nc12 , is 90

inhibition at 0.3 µM recorded for this compound, CN1C(=O)CC[C@]2(C)c3ccc(-c4ccc([N+](=O)[O-])cn4)cc3CC[C@@H]12 , is 41

inhibition at 0.3 µM recorded for this compound, C[C@]12CCC(=O)N[C@@H]1CCc1cc(Sc3ccccc3Cl)ccc12 , is 49

inhibition at 0.3 µM recorded for this compound, C[C@]12CCC(=O)N[C@@H]1CCc1cc(CSc3nc4ccccc4s3)ccc12 , is 25

inhibition at 0.3 µM recorded for this compound, Cc1ccc(C)c2sc(Sc3ccc4c(c3)CC[C@H]3N(C)C(=O)CC[C@]43C)nc12 , is 88

###

Target: Type II 5α-Reductase from Human Prostate (Homo sapiens, UniProt P31213)
Construct: The same procedure as above was used for preparations using tissue from prostate surgery; from tissue; host or cells: human prostate tissue from surgery, homogenate, 100,000×g pellet
Sequence (P31213 whole entry): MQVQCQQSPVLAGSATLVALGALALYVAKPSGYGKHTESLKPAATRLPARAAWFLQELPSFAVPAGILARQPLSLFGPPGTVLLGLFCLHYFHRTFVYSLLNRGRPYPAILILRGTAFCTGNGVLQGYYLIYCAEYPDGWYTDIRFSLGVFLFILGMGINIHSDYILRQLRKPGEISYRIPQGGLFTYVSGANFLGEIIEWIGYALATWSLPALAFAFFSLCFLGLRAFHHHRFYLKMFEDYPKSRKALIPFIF
Assay: Human Type II 5α-reductase assay (conversion of [3H]-testosterone to 5α-reduced metabolites)
Format: biochemical
Settings: pH 5.5, 0.3 μM; sodium acetate pH 5.5, 25°, 30 min; compared to control reaction mixtures; read-out: percent inhibition of Type II AR
Binary call on inhibition at 0.3 µM: MET from 30% upward, NOT MET beneath that.

Ask: Kindly determine if inhibition at 0.3 µM recorded for COc1ccc(-c2ccc3c(c2)CC[C@H]2N(C)C(=O)CC[C@]32C)cc1OC [Example 42] is above or exactly 30%.
Result: MET

Ask: Kindly determine if inhibition at 0.3 µM recorded for CN1C(=O)CC[C@]2(C)c3ccc(Sc4ccc5nc6ccccc6c(=O)n5n4)cc3CC[C@@H]12 [Example 176] is above or exactly 30%.
Result: NOT MET

Ask: Kindly determine if inhibition at 0.3 µM recorded for C[C@]12CCC(=O)N[C@@H]1CCc1cc(-c3cc(C(F)(F)F)nc4c(C(F)(F)F)cccc34)ccc12 [Example 197] is above or exactly 30%.
Result: MET

Ask: Kindly determine if inhibition at 0.3 µM recorded for CN1C(=O)CC[C@]2(C)c3ccc(-c4cc(F)cc(F)c4)cc3CC[C@@H]12 [Example 227] is above or exactly 30%.
Result: NOT MET

Ask: Kindly determine if inhibition at 0.3 µM recorded for CN1C(=O)CC[C@]2(C)c3ccc(-c4ccc5c6c(cccc46)C(=O)N(C4CCN(Cc6ccccc6)CC4)C5=O)cc3CC[C@@H]12 [Example 246] is above or exactly 30%.
Result: MET

Ask: Kindly determine if inhibition at 0.3 µM recorded for CN1C(=O)CC[C@]2(C)c3ccc(-c4cccc(C(F)(F)F)c4F)cc3CC[C@@H]12 [Example 208] is above or exactly 30%.
Result: NOT MET

Ask: Kindly determine if inhibition at 0.3 µM recorded for CN1C(=O)CC[C@]2(C)c3ccc(C(=O)NC(c4ccccc4)c4ccccc4)cc3CC[C@@H]12 [Example 148] is above or exactly 30%.
Result: NOT MET

Ask: Kindly determine if inhibition at 0.3 µM recorded for CN1C(=O)CC[C@]2(C)c3ccc(Sc4nccs4)cc3CC[C@@H]12 [Example 149] is above or exactly 30%.
Result: MET

Ask: Kindly determine if inhibition at 0.3 µM recorded for CN1C(=O)CC[C@]2(C)c3ccc(-c4ccc(O)c(F)c4)cc3CC[C@@H]12 [Example 28] is above or exactly 30%.
Result: MET

Ask: Kindly determine if inhibition at 0.3 µM recorded for CN1C(=O)CC[C@]2(C)c3ccc(-c4ccc(C(F)(F)F)cc4[N+](=O)[O-])cc3CC[C@@H]12 [Example 134] is above or exactly 30%.
Result: MET

Ask: Kindly determine if inhibition at 0.3 µM recorded for CN1C(=O)CC[C@]2(C)c3ccc(-c4cc(C(F)(F)F)ccc4F)cc3CC[C@@H]12 [Example 211] is above or exactly 30%.
Result: NOT MET

Ask: Kindly determine if inhibition at 0.3 µM recorded for CCc1cccc2sc(Sc3ccc4c(c3)CC[C@H]3N(C)C(=O)CC[C@]43C)nc12 [Example 187] is above or exactly 30%.
Result: MET

Ask: Kindly determine if inhibition at 0.3 µM recorded for CN1C(=O)CC[C@]2(C)c3ccc(Sc4cnc5ccccc5c4)cc3CC[C@@H]12 [Example 106] is above or exactly 30%.
Result: MET

Ask: Kindly determine if inhibition at 0.3 µM recorded for CN1C(=O)CC[C@]2(C)c3ccc(-c4ccc(O)c(C=O)c4)cc3CC[C@@H]12 [Example 58] is above or exactly 30%.
Result: NOT MET

Ask: Kindly determine if inhibition at 0.3 µM recorded for CN1C(=O)CC[C@]2(C)c3ccc(-c4cc(C(F)(F)F)ccc4Cl)cc3CC[C@@H]12 [Example 33] is above or exactly 30%.
Result: MET
